# Tested on: CEM cells HIV-1 protection, formazan growth assay
# Protocol Details: NCI AIDS Antiviral Assay
# Measurement Context: measured here: growth of uninfected CEM cells
Property Label: IC50 (µM)
One number for each entry, in µM.

CCC12CN(C(=O)OC)C3C(Br)C1CCC(=O)C32 (stereo not drawn); 178
C[C@H](CCC1=NCCN1)[C@H]1CC[C@H]2[C@@H]3CC[C@@H]4C[C@H](O)CC[C@]4(C)[C@H]3C[C@H](O)[C@]12C; 11.5
O=C1OC(c2ccccc2)c2ccsc2-n2cccc21 (stereo not drawn); 123
CN1C(=O)CC(Sc2ccccc2)c2ccccc21 (stereo not drawn); 36.3
COc1c(O)ccc2oc3cc(O)cc(O)c3c(=O)c12; 145
Cc1c(C)c(C)c(-n2c(=O)n(C)c(=O)n2-c2cc(C(C)(C)C)cc(C(C)(C)C)c2O)c(C)c1C; 13.2
CCCCCC=C(c1cc(Br)cc(C(=O)O)c1OC)c1cc(Br)cc(C(=O)O)c1OC; 166
CC(C)(C)OC(=O)NC(Cc1ccc([N+](=O)[O-])cc1)C(=O)NC(CCCCNC(=O)OCc1ccccc1)C(=O)ON1C(=O)CCC1=O (stereo not drawn); 56.2
CC1(C)C2CCC1C(SC(=N)N)C2 (stereo not drawn); 43.7
COc1cc(CNc2nc3ccccc3n2Cc2ccccc2)cc(CN2CCOCC2)c1O; 32.4

# per-item lookup of IC50; items listed below
1. Cn1c(=O)cc(N=Nc2ccc(Cl)c(Cl)c2)[nH]c1=O
2. CC(=O)[O-].CCCCCCC/C=N/[N-]C(=O)c1ccncc1.[Co+2].[OH3+].[OH3+].[OH3+].[OH3+]
3. Cc1cccc2[nH]c3c(c(O)cc4[nH]c5cccc(C)c5c(=O)c43)c(=O)c12

Out:
1: 16.2; 2: 115; 3: 20.9

# per-item lookup of IC50; items listed below
1. COC(=O)C1=C(C)NC(CF)=C(C(=O)OC)C1c1cccc2c(=O)c3ccccc3oc12 (stereo not drawn)
2. CC(C)(C)C1=NC(=S)SC2=NC(=O)C3(NN21)c1ccccc1-c1ccccc13
3. CC(=O)Nc1ccc2c(c1)Cc1cc(N(CCO)CCO)ccc1-2
4. C=C(C)CNC1=C(C)C(=O)C2=C(C1=O)[C@H](COC(N)=O)[C@]1(OC)[C@@H]3N[C@@H]3CN21
5. N#CCCN(CCC#N)c1ccc(/C=C2\N=C(COc3ccc(Cl)cc3Cl)OC2=O)cc1
6. NC(=O)C1c2ccccc2C=Cc2ccccc21
7. Cc1ccc2cc(NC(=O)CBr)c3ccc(C)nc3c2n1

Out:
[3.47, 20, 74.1, 14.5, 490, 155, 0.955]

# per-item lookup of IC50; items listed below
1. Cc1ccc(S(=O)(=O)Nn2c(-c3ccccc3)c(C#N)c(-c3ccc(N(C)C)cc3)c(C#N)c2=O)cc1
2. CC(=O)OC1CC2C(C)(C)CCCC2(C)C2C(=O)C(O)=C(C(C)C)C(=O)C12 (stereo not drawn)
3. CC(=O)c1ccc(Br)cc1NC1=CC(=O)c2ncccc2C1=O

Out:
35.5
2.82
4.68
